experiment: The drug is tested on Odoribacter splanchnicus strain: fecal isolate for biotransformation. The drug concentrations were measured before and after a 12-h incubation by liquid-chromatography-coupled mass spectrometry (LC–MS); conditions: 2 µM
assay_readout: Bacterial Biotransformation

Answered examples (6):
INSERT INTO assay_data (compound, assay_readout, reported) VALUES
  ('CCCCCCOC(=O)/N=C(/N)c1ccc(NCc2nc3cc(C(=O)N(CCC(=O)OCC)c4ccccn4)ccc3n2C)cc1.CS(=O)(=O)O [DABIGATRAN ETEXILATE MESYLATE]', 'Bacterial Biotransformation', 'Compound NOT metabolized'),
  ('Nc1ccc(/N=N/c2ccccc2)c(N)n1 [PHENAZOPYRIDINE]', 'Bacterial Biotransformation', 'Compound metabolized'),
  ('O=C([O-])C[C@H](O)C[C@H](O)/C=C/c1c(C2CC2)nc2ccccc2c1-c1ccc(F)cc1.O=C([O-])C[C@H](O)C[C@H](O)/C=C/c1c(C2CC2)nc2ccccc2c1-c1ccc(F)cc1.[Ca+2] [PITAVASTATIN CALCIUM]', 'Bacterial Biotransformation', 'Compound NOT metabolized'),
  ('C=CCN1CC[C@]23c4c5ccc(O)c4O[C@H]2C(=O)CC[C@@]3(O)[C@H]1C5 [NALOXONE]', 'Bacterial Biotransformation', 'Compound NOT metabolized'),
  ('CSc1ccc2c(c1)C(N1CCN(C)CC1)Cc1ccccc1S2.O=C(O)/C=C\C(=O)O (configuration not stated)', 'Bacterial Biotransformation', 'Compound NOT metabolized'),
  ('CN(C(=O)CN(CCO)CC(=O)N(C)C(C)(C)Cc1ccccc1)C(C)(C)Cc1ccccc1 [OXETHAZAINE]', 'Bacterial Biotransformation', 'Compound NOT metabolized');

# ---- query compound ----
The recorded Bacterial Biotransformation for entry NC(=O)N1c2ccccc2CC(=O)c2ccccc21 [OXCARBAZEPINE] equals Compound metabolized

====

test: The drug is tested on Bifidobacterium ruminantium strain: fecal isolate for biotransformation. The drug concentrations were measured before and after a 12-h incubation by liquid-chromatography-coupled mass spectrometry (LC–MS); details: 2 µM
assay_readout: Bacterial Biotransformation

INSERT INTO assay_data (compound, reported) VALUES
  ('C#C[C@]1(O)CC[C@H]2[C@@H]3CCC4=Cc5oncc5C[C@]4(C)[C@H]3CC[C@@]21C', 'Compound metabolized'),
  ('Br.COc1ccc2c(c1)[C@]13CCCC[C@@H]1[C@H](C2)N(C)CC3.O [DEXTROMETHORPHAN HYDROBROMIDE]', 'Compound NOT metabolized'),
  ('CC(C)c1nc(N(C)S(C)(=O)=O)nc(-c2ccc(F)cc2)c1/C=C/[C@@H](O)C[C@@H](O)CC(=O)[O-].CC(C)c1nc(N(C)S(C)(=O)=O)nc(-c2ccc(F)cc2)c1/C=C/[C@@H](O)C[C@@H](O)CC(=O)[O-].[Ca+2]', 'Compound NOT metabolized'),
  ('COC(=O)Nc1nc2ccc(C(=O)c3ccccc3)cc2[nH]1', 'Compound metabolized'),
  ('CNS(=O)(=O)Cc1ccc2[nH]cc(CCN(C)C)c2c1.O=C(O)CCC(=O)O [SUMATRIPTAN SUCCINATE]', 'Compound NOT metabolized');

# ---- query compound ----
The recorded Bacterial Biotransformation for entry CC(C)NCC(O)COc1ccc(COCCOC(C)C)cc1.CC(C)NCC(O)COc1ccc(COCCOC(C)C)cc1.O=C(O)/C=C/C(=O)O (stereo unspecified) [BISOPROLOL FUMARATE] equals Compound NOT metabolized

Provenance of the data: ChEMBL document CHEMBL5303573
